# assay_target: T1, huNABA-avi-his (human, biotinylated in vivo at the avi tag)
# T1 construct: immobilized on the Biacore chip; also called NABA-avi-his reagent; N-A1-B3-A2
# T1 chain: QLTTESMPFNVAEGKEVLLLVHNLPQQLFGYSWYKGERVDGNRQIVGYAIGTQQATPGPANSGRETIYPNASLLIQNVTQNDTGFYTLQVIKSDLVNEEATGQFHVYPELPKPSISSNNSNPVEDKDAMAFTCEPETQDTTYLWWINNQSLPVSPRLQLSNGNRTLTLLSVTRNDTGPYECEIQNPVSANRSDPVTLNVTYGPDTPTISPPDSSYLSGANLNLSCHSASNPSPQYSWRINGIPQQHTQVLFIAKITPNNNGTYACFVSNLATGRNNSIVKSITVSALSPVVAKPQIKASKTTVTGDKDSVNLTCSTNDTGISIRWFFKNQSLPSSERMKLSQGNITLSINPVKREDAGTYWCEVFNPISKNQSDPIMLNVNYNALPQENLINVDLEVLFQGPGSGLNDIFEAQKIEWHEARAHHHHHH
# assay_remarks: SPR (Biacore); antigen not given, taken as huNABA-avi-his
attribute_measured: Kd (nM)
Give bare numbers, in nM.

I'd like to know its Kd. The binder in question is Affinity Matured CDRH-3 construct with CDR-H3 SEQ ID NO:33 (WDFAHYFQTMDY) (Fab, V domains shown) VH: QVQLVQSGSELKKPGASVKVSCKASGYTFTEFGMNWVRQAPGQGLEWMGWINTKTGEATYVEEFKGRFVFSLDTSVSTAYLQISSLKAEDTAVYYCARWDFAHYFQTMDYWGQGTTVTVSS VL: DIQMTQSPSSLSASVGDRVTITCKASQNVGTNVAWYQQKPGKAPKLLIYSASYRYSGVPSRFSGSGSGTDFTLTISSLQPEDFATYYCHQYYTYPLFTFGQGTKLEIK 59
